# assay.target: Muscarinic acetylcholine receptor M1 (Homo sapiens); further: assay procedure not described here
# Sequence (P11229 whole entry): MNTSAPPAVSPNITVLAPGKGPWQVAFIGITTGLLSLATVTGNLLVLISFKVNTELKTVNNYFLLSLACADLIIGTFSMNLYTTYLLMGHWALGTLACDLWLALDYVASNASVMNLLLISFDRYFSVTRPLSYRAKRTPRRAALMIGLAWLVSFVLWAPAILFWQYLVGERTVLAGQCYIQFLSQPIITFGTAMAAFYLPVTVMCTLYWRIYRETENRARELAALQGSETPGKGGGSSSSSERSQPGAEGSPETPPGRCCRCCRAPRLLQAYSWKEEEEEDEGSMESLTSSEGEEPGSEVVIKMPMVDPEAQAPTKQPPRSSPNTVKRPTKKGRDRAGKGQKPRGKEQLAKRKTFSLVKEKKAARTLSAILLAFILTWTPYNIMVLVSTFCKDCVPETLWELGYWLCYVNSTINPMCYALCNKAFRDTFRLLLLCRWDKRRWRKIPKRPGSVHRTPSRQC
# Format: functional
Known AC50 of a selection of compounds

>>> reported_result("CO[C@H]1C[C@H](O[C@H]2CC[C@@]3(C)[C@H](CC[C@@H]4[C@@H]3CC[C@]3(C)[C@@H](C5=CC(=O)OC5)[C@@H](OC(C)=O)C[C@]43O)C2)O[C@@H](C)[C@@H]1O")
"> 30 µM"

Exercise: If you can, please state the reported AC50 value of C[C@@H]1C[C@H]2[C@@H]3C[C@H](F)C4=CC(=O)C=C[C@]4(C)[C@@]3(F)[C@@H](O)C[C@]2(C)[C@@]1(OC(=O)c1ccco1)C(=O)SCF [FLUTICASONE FUROATE] .
Solution: > 10 µM

Exercise: If you can, please state the reported AC50 value of C=CCN1CCc2nc(N)sc2CC1 [TALIPEXOLE] .
Solution: > 30 µM

Exercise: If you can, please state the reported AC50 value of C[N+](C)(C)CCOP(=O)(O)OP(=O)([O-])OC[C@H]1O[C@@H](n2ccc(N)nc2=O)[C@H](O)[C@@H]1O .
Solution: > 10 µM

###

Recorded below: AC50, system UniProtKB P35439.

Guide cases for AC50, answers given:
>>> reported_result("Cc1ccnc2c1NC(=O)c1cccnc1N2C1CC1")
"> 10 µM"
>>> reported_result("CC/C=C\\C/C=C\\C/C=C\\C/C=C\\C/C=C\\CCCC(=O)OCC")
"> 30 µM"
>>> reported_result("CC(O)(CS(=O)(=O)c1ccc(F)cc1)C(=O)Nc1ccc(C#N)c(C(F)(F)F)c1 (stereo not given) [BICALUTAMIDE]")
"> 10 µM"
>>> reported_result("CO[C@H]1C[C@H](O[C@H]2CC[C@@]3(C)[C@H](CC[C@@H]4[C@@H]3CC[C@]3(C)[C@@H](C5=CC(=O)OC5)[C@@H](OC(C)=O)C[C@]43O)C2)O[C@@H](C)[C@@H]1O")
"> 30 µM"

Exercise: If you can, please state the reported AC50 value of Cc1cc(=O)n(-c2ccccc2)n1C [ANTIPYRINE] .
Solution: > 10 µM

###

Known AC50 of a selection of compounds
# assay.target: Progesterone receptor (Homo sapiens, UniProt P06401); further: assay procedure not described here
# Sequence (P06401 whole entry): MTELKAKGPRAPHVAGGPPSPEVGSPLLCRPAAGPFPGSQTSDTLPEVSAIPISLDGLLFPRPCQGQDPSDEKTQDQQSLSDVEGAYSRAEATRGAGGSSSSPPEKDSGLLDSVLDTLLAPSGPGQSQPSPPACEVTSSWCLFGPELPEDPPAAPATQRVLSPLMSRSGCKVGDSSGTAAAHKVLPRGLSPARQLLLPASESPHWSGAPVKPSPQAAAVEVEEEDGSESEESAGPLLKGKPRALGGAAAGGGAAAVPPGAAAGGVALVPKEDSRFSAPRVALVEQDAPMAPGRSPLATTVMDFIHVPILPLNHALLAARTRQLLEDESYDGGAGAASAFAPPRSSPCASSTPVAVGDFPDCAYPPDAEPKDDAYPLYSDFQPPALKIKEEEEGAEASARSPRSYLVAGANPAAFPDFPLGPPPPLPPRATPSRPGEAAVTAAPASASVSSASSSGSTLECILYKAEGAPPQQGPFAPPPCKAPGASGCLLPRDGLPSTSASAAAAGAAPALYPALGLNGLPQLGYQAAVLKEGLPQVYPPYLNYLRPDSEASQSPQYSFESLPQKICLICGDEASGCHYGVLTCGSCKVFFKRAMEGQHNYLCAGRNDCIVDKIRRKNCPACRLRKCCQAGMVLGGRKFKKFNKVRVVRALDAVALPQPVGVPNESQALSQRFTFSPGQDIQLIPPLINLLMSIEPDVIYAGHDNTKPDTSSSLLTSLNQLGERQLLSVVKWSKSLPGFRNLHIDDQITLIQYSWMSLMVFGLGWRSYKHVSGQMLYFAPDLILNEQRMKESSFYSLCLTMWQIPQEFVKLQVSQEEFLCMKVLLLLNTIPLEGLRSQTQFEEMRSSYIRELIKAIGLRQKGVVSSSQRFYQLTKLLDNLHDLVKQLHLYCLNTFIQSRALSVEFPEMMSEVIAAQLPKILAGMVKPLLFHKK
# Type: functional

Guide cases for AC50, answers given:
>>> reported_result("COc1cc(C(=O)OCc2cccc(COC(=O)c3cc(OC)c(OC)c(OC)c3)n2)cc(OC)c1OC")
"> 30 µM"
>>> reported_result("COc1cc(C(=O)NS(=O)(=O)c2ccccc2C)ccc1Cc1cn(C)c2ccc(NC(=O)OC3CCCC3)cc12")
"> 30 µM"
>>> reported_result("CC1=C(/C=C/C(C)=C/C=C/C(C)=C/CO)C(C)(C)CCC1")
"> 30 µM"

Okay, next one:
Exercise: If you can, please state the reported AC50 value of CC(=O)Nc1ccc(CC(=O)O)cc1 .
Solution: > 30 µM

###

Recorded below: AC50, system Thromboxane A2 receptor (Homo sapiens). Further: assay procedure not described here.

Guide cases for AC50, answers given:
>>> reported_result("CC1=C(C(=O)OC(C)C)C(c2cccc([N+](=O)[O-])c2)C(C(=O)OC2CN(C(c3ccccc3)c3ccccc3)C2)=C(N)N1 (stereo not drawn) [AZELNIDIPINE]")
"> 30 µM"
>>> reported_result("O=C(/C=C/c1cccc(S(=O)(=O)Nc2ccccc2)c1)NO [BELINOSTAT]")
"> 30 µM"
>>> reported_result("O=C1Cc2cc(CCN3CCN(c4nsc5ccccc45)CC3)c(Cl)cc2N1 [ZIPRASIDONE]")
"> 30 µM"
>>> reported_result("CCOC(=O)c1ccc(C#Cc2ccc3c(c2)C(C)(C)CCS3)nc1 [TAZAROTENE]")
"> 30 µM"

Exercise: If you can, please state the reported AC50 value of C[N+]1(C)CCC(=C(c2ccccc2)c2ccccc2)CC1 .
Solution: > 30 µM

Exercise: If you can, please state the reported AC50 value of CNCCc1ccc(OC(=O)C(C)C)c(OC(=O)C(C)C)c1 [IBOPAMINE] .
Solution: > 30 µM

Exercise: If you can, please state the reported AC50 value of CCOC(=O)c1c(CSc2ccccc2)n(C)c2cc(Br)c(O)c(CN(C)C)c12 [UMIFENOVIR] .
Solution: > 30 µM

Exercise: If you can, please state the reported AC50 value of CCC(=O)O[C@](Cc1ccccc1)(c1ccccc1)[C@H](C)CN(C)C [PROPOXYPHENE] .
Solution: > 30 µM

Exercise: If you can, please state the reported AC50 value of CC(=O)Nc1ccc(CC(=O)O)cc1 [ACTARIT] .
Solution: > 30 µM

Exercise: If you can, please state the reported AC50 value of O=C1c2ccccc2C(=O)C1c1ccccc1 [PHENINDIONE] .
Solution: > 10 µM

Exercise: If you can, please state the reported AC50 value of C[C@]12C=CC(=O)C=C1CC[C@@H]1[C@@H]2CC[C@]2(C)OC(=O)CC[C@@H]12 [TESTOLACTONE] .
Solution: > 10 µM

Exercise: If you can, please state the reported AC50 value of CC(C(=O)O)c1ccc2c(c1)CC(=O)c1ccccc1S2 (stereo not drawn) [ZALTOPROFEN] .
Solution: > 30 µM

Exercise: If you can, please state the reported AC50 value of C=CCN1CCc2nc(N)sc2CC1 [TALIPEXOLE] .
Solution: > 30 µM

Exercise: If you can, please state the reported AC50 value of CC(CN1c2ccccc2Sc2ccccc21)N(C)C (stereo not drawn) [PROMETHAZINE] .
Solution: > 30 µM

Exercise: If you can, please state the reported AC50 value of C=CC[N+]1([C@H]2C[C@H]3[C@@H]4CC[C@H]5C[C@H](O)[C@@H](N6CCOCC6)C[C@]5(C)[C@H]4CC[C@]3(C)[C@H]2OC(C)=O)CCCC1 [ROCURONIUM] .
Solution: > 30 µM

Exercise: If you can, please state the reported AC50 value of CCCN(CCC)S(=O)(=O)c1ccc(C(=O)O)cc1 [PROBENECID] .
Solution: > 10 µM

Exercise: If you can, please state the reported AC50 value of CCC1(CCC(C)C)C(=O)NC(=O)NC1=O [AMOBARBITAL] .
Solution: > 10 µM

Exercise: If you can, please state the reported AC50 value of CC(C)(C)NCC(O)c1ccccc1Cl (stereo not drawn) [TULOBUTEROL] .
Solution: > 30 µM

Exercise: If you can, please state the reported AC50 value of CN(Cc1cnc2nc(N)nc(N)c2n1)c1ccc(C(=O)N[C@@H](CCC(=O)O)C(=O)O)cc1 [METHOTREXATE] .
Solution: > 30 µM

Exercise: If you can, please state the reported AC50 value of Cc1cc(C)nc(NS(=O)(=O)c2ccc(N)cc2)n1 [SULFAMETHAZINE] .
Solution: > 10 µM

Exercise: If you can, please state the reported AC50 value of Cc1ccccc1N1C(=O)c2cc(S(N)(=O)=O)c(Cl)cc2NC1C (stereo not drawn) [METOLAZONE] .
Solution: > 10 µM

Exercise: If you can, please state the reported AC50 value of CCCCOc1ccc(C(=O)CCN2CCCCC2)cc1 [DYCLONINE] .
Solution: > 30 µM

Exercise: If you can, please state the reported AC50 value of CC(C)(Oc1ccc(CCNC(=O)c2ccc(Cl)cc2)cc1)C(=O)O [BEZAFIBRATE] .
Solution: > 10 µM
